All figures here come from patent US10214492B2.

Overview of reported Mouse microsome % 60 min across a group of compounds:
# assay.remarks: Metabolic stability in mouse liver microsomes (in vitro t1/2)
# Type: in vitro ADME
# measurement.parameters: mouse liver microsomes, 60 min

Reference set (5 entries):
{"compound.smiles": "CCOc1ccccc1Cn1nc(COC(C)(C)C(=O)O)cc1-c1cccc(OC2CC2)c1", "Mouse microsome % 60 min": "58%"}
{"compound.smiles": "COc1csc(-c2cc(COC(C)(C)C(=O)O)nn2Cc2ccccc2Cl)c1", "Mouse microsome % 60 min": "92%"}
{"compound.smiles": "CC[C@](C)(OCc1cc(-c2cccc(OC)c2)n(Cc2ccccc2Cl)n1)C(=O)O", "Mouse microsome % 60 min": "101%"}
{"compound.smiles": "CC(C)(OCc1cc(-c2cccc(OC3CC3)c2)n(-c2ccc(F)cc2N2CCC2)n1)C(=O)O", "Mouse microsome % 60 min": "73%"}
{"compound.smiles": "Cn1ncc2cccc(-n3nc(COC(C)(C)C(=O)O)cc3-c3cccc(OCC4CCC4)c3)c21", "Mouse microsome % 60 min": "81%"}

Next up:
Q: Reported Mouse microsome % 60 min, compound CC(C)(OCc1cc(-c2cccc(OCC3CCC3)c2)n(-c2ccccc2Cl)n1)C(=O)O : ____
Ans: 70%

====

Entries annotated with measured half-life
# assay.remarks: Pharmacokinetic assay in mouse (IV 3 mg/kg, PO 10 mg/kg)
# Type: in vivo
# measurement.parameters: Male CD1 mouse, plasma, PO 10 mg/kg, read-out: Mouse t1/2 (converted)
Report the value in min with no unit label.

{"compound": "Cn1ncc2cccc(-n3nc(COC(C)(C)C(=O)O)cc3-c3cccc(OCC(C)(C)C)c3)c21 [Example 167]", "half-life / min": 102}
{"compound": "CCOc1ccccc1Cn1nc(COC(C)(C)C(=O)O)cc1-c1cc(OC)cc(OC)c1 [Example 211]", "half-life / min": 114}
{"compound": "COc1cccc(-c2cc(COC(C)(C)C(=O)O)nn2Cc2ccccc2Cl)c1 [Example 14]", "half-life / min": 324}
{"compound": "CCn1ncc2ccc(-c3cc(CO[C@](C)(CC)C(=O)O)nn3Cc3ccccc3Cl)cc21 [Example 220]", "half-life / min": 414}
{"compound": "CCn1ncc2ccc(-c3cc(COC(C)(C)C(=O)O)nn3-c3ccccc3N3CCCC3)cc21 [Example 229]", "half-life / min": 252}

Q: Please look up its half-life: CC(C)(OCc1cc(-c2cccc(OC3CC3)c2)n(-c2ccccc2N2CCC2)n1)C(=O)O [Example 232]
Ans: 186

Q: Please report the recorded half-life for CC(C)COc1cccc(-c2cc(COC(C)(C)C(=O)O)nn2-c2cccc3cnn(C)c23)c1 [Example 170] .
Ans: 156

Q: Request the reported half-life associated with CC[C@@](C)(OCc1cc(-c2cccc(OC3CC3)c2)n(-c2ccccc2N2CCC2)n1)C(=O)O [Example 266]
Ans: 228

Q: Item under review: CCn1ncc2ccc(-c3cc(COC(C)(C)C(=O)O)nn3-c3ccccc3N3CCC3)cc21 [Example 228] . Reported half-life?
Ans: 264

====

# assay.remarks: Metabolic stability in mouse liver microsomes (in vitro t1/2)
# Format: in vitro ADME
# measurement.parameters: mouse liver microsomes, 60 min
property: Mouse microsome % 60 min (%)
Please respond with the number in % and leave the unit unwritten.

Worked cases, Mouse microsome % 60 min given:
{"compound": "CC(C)(OCc1cc(-c2cccc(OC3CC3)c2)n(-c2ccccc2Cl)n1)C(=O)O [Example 110]", "Mouse microsome % 60 min [%]": 86}
{"compound": "COc1cccc(-c2cc(COC(C)(C)C(=O)O)nn2Cc2ccccc2Cl)c1 [Example 14]", "Mouse microsome % 60 min [%]": 95}
{"compound": "COc1cccc(-c2cc(COC(C)(C)C(=O)O)nn2Cc2ccccc2OC)c1 [Example 36]", "Mouse microsome % 60 min [%]": 99}
{"compound": "CCn1ncc2ccc(-c3cc(CO[C@](C)(CC)C(=O)O)nn3Cc3ccccc3Cl)cc21 [Example 220]", "Mouse microsome % 60 min [%]": 102}
{"compound": "COc1cc(-c2cc(COC(C)(C)C(=O)O)nn2Cc2ccccc2Cl)cs1 [Example 66]", "Mouse microsome % 60 min [%]": 83}
{"compound": "CC(C)Oc1cccc(-c2cc(COC(C)(C)C(=O)O)nn2Cc2ccccc2Cl)c1 [Example 35]", "Mouse microsome % 60 min [%]": 31}
{"compound": "CCOc1cccc(-n2nc(COC(C)(C)C(=O)O)cc2-c2cc(OC)cc(OC)c2)c1 [Example 243]", "Mouse microsome % 60 min [%]": 97}
{"compound": "Cn1ncc2cccc(-n3nc(COC(C)(C)C(=O)O)cc3-c3cccc(OC4CC4)c3)c21 [Example 191]", "Mouse microsome % 60 min [%]": 97}
{"compound": "Cn1ncc2cccc(-n3nc(COC(C)(C)C(=O)O)cc3-c3cccc(OCC(C)(C)C)c3)c21 [Example 167]", "Mouse microsome % 60 min [%]": 97}
{"compound": "CCn1ncc2ccc(-c3cc(COC(C)(C)C(=O)O)nn3-c3ccccc3N3CCCC3)cc21 [Example 229]", "Mouse microsome % 60 min [%]": 81}

Q: # Mouse microsome % 60 min lookup, item CCOc1ccccc1Cn1nc(COC(C)(C)C(=O)O)cc1-c1ccc2cnn(CC)c2c1 [Example 198]
Ans: 84

Q: Name the recorded Mouse microsome % 60 min for CCOc1cc(OCC)cc(-c2cc(COC(C)(C)C(=O)O)nn2-c2ccccc2Cl)c1 [Example 180] .
Ans: 103

Q: Could you share which Mouse microsome % 60 min value was measured for CC(C)Oc1ncc(-c2cc(COC(C)(C)C(=O)O)nn2Cc2ccccc2Cl)s1 [Example 133] ?
Ans: 90

Q: I am curious: what Mouse microsome % 60 min value has been reported for CCn1ncc2ccc(-c3cc(CO[C@@](C)(CC)C(=O)O)nn3Cc3ccccc3Cl)cc21 [Example 257] ?
Ans: 102

Q: Recorded Mouse microsome % 60 min for COc1cccc(-c2cc(COC(C)(C)C(=O)O)nn2-c2ccccc2Cl)c1 [Example 57] , please?
Ans: 100

Q: Please report the recorded Mouse microsome % 60 min for CCOc1ccccc1Cn1nc(COC(C)(C)C(=O)O)cc1-c1cc(Cl)cc(OC)c1 [Example 196] .
Ans: 33

Q: What value of Mouse microsome % 60 min has been recorded for this entry: CCCn1ncc2ccc(-c3cc(COC(C)(C)C(=O)O)nn3-c3ccccc3N3CCC3)cc21 [Example 246]
Ans: 81

====

Rat microsome % 60 min: recorded values
# assay.remarks: Metabolic stability in rat liver microsomes (in vitro t1/2)
# Format: in vitro ADME
# measurement.parameters: rat liver microsomes, 60 min
I only need the number, in %, no unit after it.

{"compound.smiles": "CC[C@](C)(OCc1cc(-c2cccc(OC)c2)n(Cc2ccccc2Cl)n1)C(=O)O", "Rat microsome % 60 min / %": 44}
{"compound.smiles": "CC(C)Oc1ncc(-c2cc(COC(C)(C)C(=O)O)nn2Cc2ccccc2Cl)s1", "Rat microsome % 60 min / %": 91}

Q: What does the record list as Rat microsome % 60 min for CCOc1ccccc1Cn1nc(COC(C)(C)C(=O)O)cc1-c1cc(Cl)cc(OC)c1 ?
Ans: 32

Q: Name the reported Rat microsome % 60 min value associated with the molecule CC[C@@](C)(OCc1cc(-c2cccc(OC)c2)n(Cc2ccccc2Cl)n1)C(=O)O
Ans: 61

Q: # lookup: Rat microsome % 60 min of CC(C)(OCc1cc(-c2cccc(OCC3CCC3)c2)n(-c2ccccc2Cl)n1)C(=O)O
Ans: 72

Q: // returns reported Rat microsome % 60 min for input Cn1ncc2ccc(-c3cc(COC(C)(C)C(=O)O)nn3Cc3ccccc3Cl)cc21
Ans: 88

Q: GET /values?readout=Rat microsome % 60 min&item= CCOc1ccccc1Cn1nc(COC(C)(C)C(=O)O)cc1-c1ccc2cnn(CC)c2c1
Ans: 82

Q: Entry COc1cccc(-c2cc(COC(C)(C)C(=O)O)nn2Cc2ccccc2OC(C)C)c1 : reported Rat microsome % 60 min = ?
Ans: 48

Q: Recorded Rat microsome % 60 min for CCn1ncc2ccc(-c3cc(CO[C@@](C)(CC)C(=O)O)nn3Cc3ccccc3Cl)cc21 , please?
Ans: 103

Q: Fill in: Rat microsome % 60 min of CC(C)COc1ncc(-c2cc(COC(C)(C)C(=O)O)nn2Cc2ccccc2Cl)s1 is ___
Ans: 70

Q: Can you look up the measured Rat microsome % 60 min of CC(C)(OCc1cc(-c2cccc(OC3CCC3)c2)n(-c2ccccc2Cl)n1)C(=O)O for me?
Ans: 87

====

Entries and their IC50 values follow.
# measured.target: MCT1 (Homo sapiens (Human), UniProt P53985)
# Sequence (P53985 whole entry): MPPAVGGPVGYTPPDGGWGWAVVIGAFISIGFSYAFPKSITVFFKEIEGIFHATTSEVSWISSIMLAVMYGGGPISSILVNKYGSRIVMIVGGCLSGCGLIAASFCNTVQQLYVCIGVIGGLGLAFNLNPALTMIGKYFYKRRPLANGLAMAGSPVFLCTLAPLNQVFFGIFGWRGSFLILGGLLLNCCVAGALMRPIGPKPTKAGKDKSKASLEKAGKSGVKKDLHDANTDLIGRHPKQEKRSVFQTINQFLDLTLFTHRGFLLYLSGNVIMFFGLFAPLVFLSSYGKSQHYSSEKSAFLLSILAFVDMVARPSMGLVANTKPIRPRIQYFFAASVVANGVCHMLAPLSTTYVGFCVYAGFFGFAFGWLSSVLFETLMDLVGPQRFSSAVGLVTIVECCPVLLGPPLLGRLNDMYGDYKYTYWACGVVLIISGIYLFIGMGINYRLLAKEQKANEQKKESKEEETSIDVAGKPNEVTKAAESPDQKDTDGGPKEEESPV
# Sequence (P35613 140-385 partner): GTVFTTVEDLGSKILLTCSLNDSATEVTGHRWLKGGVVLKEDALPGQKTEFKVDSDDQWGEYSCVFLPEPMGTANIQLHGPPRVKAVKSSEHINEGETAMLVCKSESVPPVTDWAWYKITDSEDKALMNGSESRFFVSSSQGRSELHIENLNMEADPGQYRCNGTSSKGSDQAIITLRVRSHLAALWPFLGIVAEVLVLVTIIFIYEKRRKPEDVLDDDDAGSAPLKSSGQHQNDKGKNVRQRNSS
# assay.remarks: Assay 4: MCT1-mediated lactate transport in BT20 breast cancer cells
# Type: cell-based
# measurement.parameters: Table 27
# Description: 10 μL of a 30 mM DMSO stock of BCECF-AM ester (Life Technologies) is added and the cells are incubated at 37° C. for 5 min. The cells are pelleted (300 g, 5 min), washed once with 1 mL Tyrode's Solution, pH 7.4, re-pelleted (300 g, 5 min), and resuspended in 1 mL Tyrode's Solution, pH 7.4. Assay 4: MCT1-Mediated Lactate Transport in BT20 Breast Cancer Cells. Preparation of BCECF loaded cells are as described for Assay 1. […]
Number only, in nM; omit the unit.

Take a look at these entries with their results.
{"molecule": "COc1cccc(-c2cc(CO[C@@H](C)C(=O)O)nn2Cc2ccccc2Cl)c1 [Example 124]", "readout.units": "nM", "experimental.value": 31000}
{"molecule": "CCOc1ccccc1Cn1nc(COC(C)(C)C(=O)O)cc1-c1cccc(OC2CC2)c1 [Example 201]", "readout.units": "nM", "experimental.value": 15000}
{"molecule": "Cn1nnc2cccc(-n3nc(COC(C)(C)C(=O)O)cc3-c3cccc(OCC(C)(C)C)c3)c21 [Example 258]", "readout.units": "nM", "experimental.value": 27000}
{"molecule": "CCOc1ccccc1Cn1nc(COC(C)(C)C(=O)O)cc1-c1ccc2cnn(CC)c2c1 [Example 198]", "readout.units": "nM", "experimental.value": 26000}
{"molecule": "COc1cccc(-c2cc(CCC(C)(C)C(=O)O)nn2Cc2ccccc2Cl)c1 [Example 144]", "readout.units": "nM", "experimental.value": 2400}

Q: Param item = CCCn1ncc2ccc(-c3cc(COC(C)(C)C(=O)O)nn3-c3ccccc3N3CCC3)cc21 [Example 246] ; retrieve measured IC50.
Ans: 32000

Q: For the molecule CCn1ncc2ccc(-c3cc(COC(C)(C)C(=O)O)nn3Cc3ccccc3Cl)cc21 [Example 151] , what IC50 is on record?
Ans: 70000
